Target: GluR3 (5-42) (Homo sapiens, UniProt P42263)
Sequence (P42263 29-894 isoform P42263-2 limits assumed): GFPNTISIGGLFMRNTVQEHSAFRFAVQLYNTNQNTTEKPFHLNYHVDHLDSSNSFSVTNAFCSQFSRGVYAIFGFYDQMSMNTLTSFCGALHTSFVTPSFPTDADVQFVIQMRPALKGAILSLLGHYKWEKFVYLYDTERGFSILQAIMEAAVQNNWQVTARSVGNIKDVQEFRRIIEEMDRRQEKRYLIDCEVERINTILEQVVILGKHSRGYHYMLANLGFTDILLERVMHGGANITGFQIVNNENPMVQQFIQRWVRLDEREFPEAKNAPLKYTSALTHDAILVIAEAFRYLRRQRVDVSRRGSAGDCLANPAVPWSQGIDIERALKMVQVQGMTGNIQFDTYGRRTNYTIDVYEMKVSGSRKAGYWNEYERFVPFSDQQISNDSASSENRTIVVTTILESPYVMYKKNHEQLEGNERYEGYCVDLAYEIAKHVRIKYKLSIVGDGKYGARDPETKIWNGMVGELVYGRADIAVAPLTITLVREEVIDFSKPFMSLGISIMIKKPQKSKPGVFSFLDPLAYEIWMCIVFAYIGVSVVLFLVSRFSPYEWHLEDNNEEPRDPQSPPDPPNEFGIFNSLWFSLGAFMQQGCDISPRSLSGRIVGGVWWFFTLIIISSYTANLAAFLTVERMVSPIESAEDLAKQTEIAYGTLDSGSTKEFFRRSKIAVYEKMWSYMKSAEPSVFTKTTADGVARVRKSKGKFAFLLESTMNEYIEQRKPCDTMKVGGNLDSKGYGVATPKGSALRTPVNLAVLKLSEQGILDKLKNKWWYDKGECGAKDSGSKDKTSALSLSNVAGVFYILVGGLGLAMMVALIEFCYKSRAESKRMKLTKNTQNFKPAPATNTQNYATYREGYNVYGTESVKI
assay-metric: Ki (nM)

| chemical-structure | assay-metric | recorded-number |
| --- | --- | --- |
| CN1Cc2c(S(=O)(=O)N(C)C)cc3c(c2C1)NC(=O)C3=NO | Ki | 967 |

---

Target: GluR1 (1-24) (Homo sapiens, UniProt P42261)
Sequence (P42261 19-906 isoform P42261-2 limits assumed): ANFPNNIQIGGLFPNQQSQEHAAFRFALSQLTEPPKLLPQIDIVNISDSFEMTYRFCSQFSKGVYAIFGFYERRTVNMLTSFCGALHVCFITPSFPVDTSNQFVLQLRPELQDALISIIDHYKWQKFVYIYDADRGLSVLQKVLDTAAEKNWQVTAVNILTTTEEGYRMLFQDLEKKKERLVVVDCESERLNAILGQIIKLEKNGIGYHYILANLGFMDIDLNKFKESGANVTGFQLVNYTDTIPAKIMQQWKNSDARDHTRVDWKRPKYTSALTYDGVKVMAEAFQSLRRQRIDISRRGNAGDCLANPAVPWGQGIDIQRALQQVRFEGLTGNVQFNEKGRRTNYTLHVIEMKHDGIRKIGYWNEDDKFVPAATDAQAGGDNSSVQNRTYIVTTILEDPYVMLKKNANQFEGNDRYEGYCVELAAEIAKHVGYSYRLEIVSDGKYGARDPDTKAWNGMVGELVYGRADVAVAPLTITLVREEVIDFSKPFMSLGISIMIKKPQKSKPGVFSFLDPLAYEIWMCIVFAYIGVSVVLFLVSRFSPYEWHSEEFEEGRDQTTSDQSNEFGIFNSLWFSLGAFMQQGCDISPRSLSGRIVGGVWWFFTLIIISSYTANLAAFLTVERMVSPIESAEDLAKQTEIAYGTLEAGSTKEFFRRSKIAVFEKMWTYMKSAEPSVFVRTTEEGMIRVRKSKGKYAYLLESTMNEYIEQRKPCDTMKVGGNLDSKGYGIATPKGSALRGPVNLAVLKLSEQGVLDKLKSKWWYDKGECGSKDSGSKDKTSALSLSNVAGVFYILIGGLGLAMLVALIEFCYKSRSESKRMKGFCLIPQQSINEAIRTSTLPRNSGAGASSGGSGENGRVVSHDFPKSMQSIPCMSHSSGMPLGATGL
pKi: −log10 of the molar value.

| chemical-structure | pKi |
| --- | --- |
| CN1Cc2c(S(=O)(=O)N(C)C)cc3c(c2C1)NC(=O)C3=NO | 5.71 |

---

Molecular target: GluR4 (4-19) (Homo sapiens)
Sequence (P48058 21-902): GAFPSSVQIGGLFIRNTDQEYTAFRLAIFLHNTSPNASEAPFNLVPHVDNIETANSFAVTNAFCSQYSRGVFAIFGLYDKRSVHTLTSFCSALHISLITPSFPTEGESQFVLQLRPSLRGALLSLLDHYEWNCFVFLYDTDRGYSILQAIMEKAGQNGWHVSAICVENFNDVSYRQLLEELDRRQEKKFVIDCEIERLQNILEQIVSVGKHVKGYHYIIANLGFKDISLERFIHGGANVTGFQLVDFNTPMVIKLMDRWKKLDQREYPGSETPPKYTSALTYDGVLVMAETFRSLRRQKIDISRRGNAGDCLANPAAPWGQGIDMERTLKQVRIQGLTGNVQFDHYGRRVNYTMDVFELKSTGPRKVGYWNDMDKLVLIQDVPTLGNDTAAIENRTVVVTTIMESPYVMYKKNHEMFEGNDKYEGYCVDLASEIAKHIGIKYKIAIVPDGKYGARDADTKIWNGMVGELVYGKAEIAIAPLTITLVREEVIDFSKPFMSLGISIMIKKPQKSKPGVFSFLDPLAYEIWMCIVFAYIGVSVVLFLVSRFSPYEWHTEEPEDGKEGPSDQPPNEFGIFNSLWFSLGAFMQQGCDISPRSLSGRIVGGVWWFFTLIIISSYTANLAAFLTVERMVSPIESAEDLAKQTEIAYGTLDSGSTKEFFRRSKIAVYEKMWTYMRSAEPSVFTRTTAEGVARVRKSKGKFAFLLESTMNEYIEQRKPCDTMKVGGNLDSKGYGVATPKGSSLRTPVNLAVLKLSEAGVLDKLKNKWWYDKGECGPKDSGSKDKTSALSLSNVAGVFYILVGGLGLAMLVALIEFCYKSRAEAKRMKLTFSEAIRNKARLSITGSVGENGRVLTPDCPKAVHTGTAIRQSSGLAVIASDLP
assay-metric: Ki (nM)

| chemical-structure | target-entity | assay-metric | recorded-number |
| --- | --- | --- | --- |
| CN1Cc2c(S(=O)(=O)N(C)C)cc3c(c2C1)NC(=O)C3=NO | GluR4 (4-19) (Homo sapiens) | Ki | 1050 |
